# test-summary: Metabolic stability in rat liver microsomes
# Assay type: in vitro ADME
# conditions: Sprague Dawley
Use 90 mL/min/kg as the dividing line for CLint scaled at 1 μM, with the line itself on the Met side and lower values as Not met.

Example entries begin here.
# input Does CLint scaled at 1 μM meet or surpass 90 mL/min/kg for CNC(=NC#N)NC[C@]12CCC(C)(C)C[C@H]1[C@H]1C(=O)C=C3[C@@]4(C)C=C(C#N)C(=O)C(C)(C)[C@@H]4CC[C@@]3(C)[C@]1(C)CC2 ?
# output Not met

# input Does CLint scaled at 1 μM meet or surpass 90 mL/min/kg for CC1(C)C(=O)C(C#N)=C[C@]2(C)C3=CC(=O)[C@@H]4[C@@H]5C[C@@](C)(C#N)CC[C@]5(C)CC[C@@]4(C)[C@]3(C)CC[C@@H]12 ?
# output Met

# input Does CLint scaled at 1 μM meet or surpass 90 mL/min/kg for COC(=O)[C@]12CCC(C)(C)C[C@H]1[C@H]1C(=O)C=C3[C@@]4(C)C=C(C#N)C(=O)C(C)(C)[C@@H]4CC[C@@]3(C)[C@]1(C)CC2 [Control, reference compound] ?
# output Met

# input Does CLint scaled at 1 μM meet or surpass 90 mL/min/kg for CC1(C)C(=O)C(C#N)=C[C@]2(C)C3=CC(=O)[C@@H]4[C@@H]5C[C@@](C)(N6CC(O)C6)CC[C@]5(C)CC[C@@]4(C)[C@]3(C)CC[C@@H]12 ?
# output Met

# input Does CLint scaled at 1 μM meet or surpass 90 mL/min/kg for CC1(C)C(=O)C(C#N)=C[C@]2(C)C3=CC(=O)[C@@H]4[C@@H]5C[C@@](C)(c6nnc(C(N)=O)o6)CC[C@]5(C)CC[C@@]4(C)[C@]3(C)CC[C@@H]12 ?
# output Not met

# input Does CLint scaled at 1 μM meet or surpass 90 mL/min/kg for CC1(C)C(=O)C(C#N)=C[C@]2(C)C3=CC(=O)[C@@H]4[C@@H]5C[C@@](C)(Cc6nnco6)CC[C@]5(C)CC[C@@]4(C)[C@]3(C)CC[C@@H]12 ?
# output Met

# input Does CLint scaled at 1 μM meet or surpass 90 mL/min/kg for Cc1nnc([C@@]2(C)CC[C@]3(C)CC[C@]4(C)[C@H](C(=O)C=C5[C@@]6(C)C=C(C#N)C(=O)C(C)(C)[C@@H]6CC[C@]54C)[C@@H]3C2)o1 ?
# output Not met

# input Does CLint scaled at 1 μM meet or surpass 90 mL/min/kg for CC1(C)C(=O)C(C#N)=C[C@]2(C)C3=CC(=O)[C@@H]4[C@@H]5C[C@@](C)(c6nnco6)CC[C@]5(C)CC[C@@]4(C)[C@]3(C)CC[C@@H]12 ?
# output Not met

Attention now shifts to the item below.
# input Does CLint scaled at 1 μM meet or surpass 90 mL/min/kg for CC(=NC#N)NC[C@]12CCC(C)(C)C[C@H]1[C@H]1C(=O)C=C3[C@@]4(C)C=C(C#N)C(=O)C(C)(C)[C@@H]4CC[C@@]3(C)[C@]1(C)CC2 ?
# output Not met

###

# test-summary: Metabolic stability in rat liver microsomes
# Assay type: in vitro ADME
# conditions: Sprague Dawley
attribute-measured: log10 of half-life at 1 μM (log10 of the value in min)
Field: value | Transform: log10 | Quantity: half-life at 1 μM | Unit: min

Dear colleague, could you please provide log10 of half-life at 1 μM for the compounds listed below?
1. Cc1nnc([C@@]2(C)CC[C@]3(C)CC[C@]4(C)[C@H](C(=O)C=C5[C@@]6(C)C=C(C#N)C(=O)C(C)(C)[C@@H]6CC[C@]54C)[C@@H]3C2)o1 [Example 1]
2. CC1(C)C(=O)C(C#N)=C[C@]2(C)C3=CC(=O)[C@@H]4[C@@H]5C[C@@](C)(N6CC(O)C6)CC[C@]5(C)CC[C@@]4(C)[C@]3(C)CC[C@@H]12 [Example 26]
3. CC1(C)C(=O)C(C#N)=C[C@]2(C)C3=CC(=O)[C@@H]4[C@@H]5C[C@@](C)(c6nnc(C(N)=O)o6)CC[C@]5(C)CC[C@@]4(C)[C@]3(C)CC[C@@H]12 [Example 25]
4. COC(=O)[C@]12CCC(C)(C)C[C@H]1[C@H]1C(=O)C=C3[C@@]4(C)C=C(C#N)C(=O)C(C)(C)[C@@H]4CC[C@@]3(C)[C@]1(C)CC2 [Control, reference compound]
5. CNC(=NC#N)NC[C@]12CCC(C)(C)C[C@H]1[C@H]1C(=O)C=C3[C@@]4(C)C=C(C#N)C(=O)C(C)(C)[C@@H]4CC[C@@]3(C)[C@]1(C)CC2 [Example 3]

# output
1. 1.77
2. 1.19
3. 1.46
4. 0.48
5. 1.70

Dear colleague, could you please provide log10 of half-life at 1 μM for the compounds listed below?
1. CC(=NC#N)NC[C@]12CCC(C)(C)C[C@H]1[C@H]1C(=O)C=C3[C@@]4(C)C=C(C#N)C(=O)C(C)(C)[C@@H]4CC[C@@]3(C)[C@]1(C)CC2 [Example 4]
2. CC1(C)C(=O)C(C#N)=C[C@]2(C)C3=CC(=O)[C@@H]4[C@@H]5C[C@@](C)(Cc6nnco6)CC[C@]5(C)CC[C@@]4(C)[C@]3(C)CC[C@@H]12 [Example 14]
3. CC1(C)C(=O)C(C#N)=C[C@]2(C)C3=CC(=O)[C@@H]4[C@@H]5C[C@@](C)(c6nnco6)CC[C@]5(C)CC[C@@]4(C)[C@]3(C)CC[C@@H]12 [Example 9]
4. CC1(C)C(=O)C(C#N)=C[C@]2(C)C3=CC(=O)[C@@H]4[C@@H]5C[C@@](C)(C#N)CC[C@]5(C)CC[C@@]4(C)[C@]3(C)CC[C@@H]12 [Example 2]

# output
1. 1.81
2. 0.56
3. 1.54
4. 1.20
